# assayed.target: D(1A) dopamine receptor (Homo sapiens) (UniProt P21728)
# Sequence (P21728 whole entry, looked up): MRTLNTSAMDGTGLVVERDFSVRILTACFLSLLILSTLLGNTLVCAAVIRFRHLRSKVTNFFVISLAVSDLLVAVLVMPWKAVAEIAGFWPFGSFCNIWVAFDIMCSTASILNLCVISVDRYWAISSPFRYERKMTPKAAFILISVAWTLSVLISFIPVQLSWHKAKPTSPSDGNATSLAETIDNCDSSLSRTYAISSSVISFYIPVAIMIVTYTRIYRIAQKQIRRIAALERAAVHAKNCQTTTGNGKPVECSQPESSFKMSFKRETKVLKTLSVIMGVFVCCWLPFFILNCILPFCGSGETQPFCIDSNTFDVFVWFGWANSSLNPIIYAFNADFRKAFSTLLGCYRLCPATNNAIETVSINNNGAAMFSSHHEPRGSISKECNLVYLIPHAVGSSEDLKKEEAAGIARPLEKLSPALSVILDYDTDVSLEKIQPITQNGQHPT
# assay.explanation: HTS Assay for Allosteric Agonists of the Human D1 Dopamine Receptor: Primary Screen for Agonists (AID 488981)
# condition.parameters: Inducible HEK293 T-REx D1 cells, calcium-flux fluorescence, 180 s kinetic; series mostly up to 41.8 µM
Records with an inconclusive call do not appear. Active and inactive are the calls of the source. Calls come from the whole dose curve; as a rule, active = well fitted activation curve with a large enough effect; inconclusive = small, poorly fitted or top-dose-only effect; inactive = flat fitted curve, though single readings scatter.
In this exercise, the only acceptable responses are Y = active, N = inactive

1. CCN1CCC[C@H]1CNC(=O)c1c(O)c(Cl)cc(Cl)c1OC :: N
2. CC(C)NCC(O)c1cc(O)cc(O)c1 (centres undefined) :: N
3. COC(=O)C1=C(C)NC(C)=C(C(=O)OCCN(C)Cc2ccccc2)C1c1cccc([N+](=O)[O-])c1 (centres undefined) :: N
4. CC[N+](C)(C)c1cccc(O)c1 :: N
5. CCN(CC)CCOCCOC(=O)C1(c2ccccc2)CCCC1 :: N
6. CCOC(=O)C1=C(C)NC(C)=C(C(=O)OC)C1c1cccc([N+](=O)[O-])c1 (centres undefined) :: N
7. c1cnc(N2CCN(Cc3ccc4c(c3)OCO4)CC2)nc1 :: N
8. CCCC(C(=O)OCCN(CC)CC)(c1ccccc1)c1ccccc1 :: N

Inquiry: What is the recorded call for this compound in the test? COC(=O)C1=C(C)NC(C)=C(C(=O)OC(C)(C)CN(C)CCC(c2ccccc2)c2ccccc2)C1c1cccc([N+](=O)[O-])c1 (centres undefined)
Reply text: N

Inquiry: Kindly provide the recorded test outcome for the following compound: CCN1CCc2nc(N)oc2CC1
Reply text: N

Inquiry: Assay result, entry COc1cc2c(cc1OC)-c1cc(=Nc3c(C)cc(C)cc3C)n(C)c(=O)n1CC2 — outcome?
Reply text: N

Inquiry: Hey, what did the test say about CC(=O)[C@]1(O)Cc2c(O)c3c(c(O)c2[C@@H](O[C@H]2C[C@H](N)[C@H](O)[C@H](C)O2)C1)C(=O)c1ccccc1C3=O ?
Reply text: Y

Inquiry: Returns: the outcome recorded for NC(N)=N/N=C/c1c(Cl)cccc1Cl in this assay.
Reply text: N

Inquiry: Tell me the recorded outcome of this test for CCCN(CCC)CCc1cccc2c1CC(=O)N2 .
Reply text: N

Inquiry: Outcome? C[N+](C)(C)CCOC(=O)CCC(=O)OCC[N+](C)(C)C
Reply text: N

Inquiry: Name the outcome recorded for CN(C)CCOC(=O)COc1ccc(Cl)cc1 in the assay.
Reply text: N

Inquiry: Please indicate how the test categorized CC(=O)OC(C)C[N+](C)(C)C (centres undefined) .
Reply text: N

Inquiry: Fill in: this test's call for CCCN1C[C@H](CSC)C[C@@H]2c3cccc4[nH]cc(c34)C[C@H]21 is ___
Reply text: N

Inquiry: Fill in: this test's call for CCN(CC)CCCN(c1ccccc1)C1Cc2ccccc2C1 is ___
Reply text: N
